experiment-description: blockers of Trypanosoma cruzi growth in host cells – cell-based, NIH3T3 host, beta-gal parasite, luminescence, cherry-pick, confirmation (AID 651739)
setup-conditions: T. cruzi beta-gal in NIH3T3, GalScreen luminescence, 90 h; at 8.35 µM; active compounds read high
Screen size: about 5,600 compounds; about 4,100 (73%) were called active. About 4% were inconclusive and are not listed. The set was probably picked from earlier hits. Not all results are given here.
attribute-measured: inhibition (%)
Please reply with the bare figure in % and do not write the unit itself.

INSERT INTO measurements (input_smiles, endpoint_value) VALUES
  ('C[C@H]1CCCCO[C@H](CN(C)S(=O)(=O)c2ccc(Cl)cc2)[C@@H](C)CN([C@@H](C)CO)C(=O)c2cc(NC(=O)Nc3ccc4c(c3)OCO4)ccc2O1', 103),
  ('COCCNC[C@@H]1[C@H](c2ccccc2)[C@H](CO)N1c1nc(C)c(C)s1', 95.7),
  ('CCC(=O)N(C)C[C@@H]1Oc2cc(C#CCN(C)C)ccc2S(=O)(=O)N([C@H](C)CO)C[C@H]1C', 98.5),
  ('C[C@H](O)C#Cc1ccc([C@H]2[C@H]3CN(S(=O)(=O)Cc4ccccc4)CCCCN3[C@H]2CO)cc1', 72.1),
  ('CC(=O)N(C)C[C@H]1Oc2cc(C#CCN(C)C)ccc2S(=O)(=O)N([C@@H](C)CO)C[C@@H]1C', 95.7),
  ('C[C@@H]1CN([C@H](C)CO)C(=O)c2cc(C#CC3CCCCC3)cnc2O[C@@H]1CN(C)C(=O)NC1CCCC1', 103);

Query string: State its inhibition: `O=S(=O)(Cc1ccccc1)N1CCCCN2[C@@H](CO)[C@H](c3ccc(-c4cccnc4)cc3)[C@@H]2C1`
Result string: 97.7

Query string: State its inhibition: `COc1ccc(NC(=O)N(C)C[C@H]2OCCCC[C@H](C)Oc3ccc(NC(=O)Nc4ccc(C(F)(F)F)cc4)cc3C(=O)N([C@@H](C)CO)C[C@@H]2C)cc1`
Result string: 103

Query string: State its inhibition: `O=C(CN1CCOCC1)N1CCCCN2[C@H](CO)[C@H](c3ccc(-c4ccccc4)cc3)[C@@H]2C1`
Result string: 73.7

Query string: State its inhibition: `CCCC#Cc1ccc([C@H]2[C@H](CO)N3CCCCN(C(=O)c4ccc5c(c4)OCO5)C[C@@H]23)cc1`
Result string: 104

Query string: State its inhibition: `C[C@@H]1CN([C@@H](C)CO)C(=O)c2cc(C#CC3CCCCC3)cnc2O[C@H]1CN(C)S(=O)(=O)c1ccccc1`
Result string: 107

Query string: State its inhibition: `CC(C)NC(=O)Nc1ccc2c(c1)C(=O)N([C@@H](C)CO)C[C@H](C)[C@H](CN(C)S(=O)(=O)c1ccc(Cl)cc1)OCCCC[C@H](C)O2`
Result string: 104

Query string: State its inhibition: `CC(=O)N(C)C[C@@H]1[C@@H](c2ccc(-c3ccccc3F)cc2)[C@@H](CO)N1C(C)=O`
Result string: 19.8
